Every entry's value here was drawn from ChEMBL document CHEMBL2093137.

assay: WHO-TDR: Cytotoxicity; format: toxicity, cell-based; conditions: human, MRC5 cells
property.name: IC50

Example cases with answers are listed next.
>>> print(df.to_string())
                                   compound  observed_measurement
0   COc1cccc(-c2cc(CC(=O)Nc3nc(C)cs3)no2)c1          > 9.88 µg/mL
1  Cc1cc(-c2nnc(NC(=O)CSc3ccc(F)cc3)o2)nn1C          > 10.4 µg/mL
2            OCc1cnc(SCc2ccccc2)n1Cc1ccccc1          > 9.31 µg/mL
3  Cc1ccnc(Nc2ccc(NCCNS(=O)(=O)c3cccc(Cl)c3)nn2)c1          > 12.6 µg/mL

List IC50 for every entry below, keeping the order given.
1. O=C(CSc1nnc(NC(=O)COc2ccc(Cl)cc2)s1)NCc1ccco1
2. O=C(Nc1nnc(SCc2ccccc2Cl)s1)C1CCCCC1
3. CC(C)S(=O)(=O)Nc1ccc2c(c1)NC(=O)C(C)(C)CO2
4. CCOc1ccc2nc(N(CCN(C)C)C(=O)c3cc4ccccc4cc3OC)sc2c1
5. CC(C)(C)n1ncc2c(=O)n(CCC(=O)Nc3ccc4c(c3)OCO4)cnc21
6. CN(CC1CCCO1)S(=O)(=O)c1ccc(C(=O)Nc2nc3c(s2)CSc2ccccc2-3)cc1 (stereo not given)
7. CCSc1ccccc1C(=O)Nc1nnc(-c2cccs2)o1
8. Cc1nnc(NC(=O)COc2cccc3ccc(N4CCCC(C)C4)nc23)s1 (stereo not given)

Found:
0.462 µg/mL
> 11 µg/mL
> 9.37 µg/mL
4.28 µg/mL
> 11.5 µg/mL
3 µg/mL
5.3 µg/mL
> 11.9 µg/mL

List IC50 for every entry below, keeping the order given.
1. C=CCN1C(=O)C(C)(C)COc2ccc(NS(=O)(=O)c3ccc4c(c3)OCCO4)cc21
2. CCOC(=O)Cn1/c(=N/C(=O)CSC(C)=O)sc2ccccc21
3. CCOc1ncccc1C(=O)Nc1c(C)nc2sc(C)c(C)n2c1=O
4. O=C(CSc1nc2ccccc2nc1O)Nc1ccccc1C(=O)c1ccccc1
5. NS(=O)(=O)c1ccc2nc(NC(=O)CCSc3ccc(Cl)cc3)sc2c1
6. Fc1ccc(Nc2nc(N3CCCC3)nc(N3CCCC3)n2)cc1

Found:
> 13.3 µg/mL
> 10.6 µg/mL
> 10.8 µg/mL
> 12.5 µg/mL
> 12.8 µg/mL
> 10.9 µg/mL
